protocol_conditions: in isopropanol, 313.15 K
assay_metric: solubility (mole fraction)
// no unit, no text: just the number

What value of solubility (mole fraction) has been reported for the following compound? N#CCNC(=O)c1cnccc1C(F)(F)F 0.0114

---

protocol_conditions: in ethyl acetate, 308.15 K
assay_metric: solubility (mole fraction)
// no unit, no text: just the number

What value of solubility (mole fraction) has been reported for the following compound? N#CCNC(=O)c1cnccc1C(F)(F)F 0.0213

---

protocol_conditions: in 1,4-dioxane, 288.15 K
assay_metric: solubility (mole fraction)
// no unit, no text: just the number

What value of solubility (mole fraction) has been reported for the following compound? N#CCNC(=O)c1cnccc1C(F)(F)F 0.0145

---

protocol_conditions: in isopropanol, 318.15 K
assay_metric: solubility (mole fraction)

What value of solubility (mole fraction) has been reported for the following molecule? N#CCNC(=O)c1cnccc1C(F)(F)F 0.0144

---

protocol_conditions: in n-propanol, 298.15 K
assay_metric: solubility (mole fraction)
// no unit, no text: just the number

What value of solubility (mole fraction) has been reported for the following compound? N#CCNC(=O)c1cnccc1C(F)(F)F 0.00552

---

protocol_conditions: in ethyl acetate, 293.15 K
assay_metric: solubility (mole fraction)
// no unit, no text: just the number

What value of solubility (mole fraction) has been reported for the following compound? N#CCNC(=O)c1cnccc1C(F)(F)F 0.0134

---

protocol_conditions: in isopropanol, 283.15 K
assay_metric: solubility (mole fraction)
// no unit, no text: just the number

What value of solubility (mole fraction) has been reported for the following molecule? N#CCNC(=O)c1cnccc1C(F)(F)F 0.00249

---

protocol_conditions: in methanol, 288.15 K
assay_metric: solubility (mole fraction)
// no unit, no text: just the number

What value of solubility (mole fraction) has been reported for the following compound? N#CCNC(=O)c1cnccc1C(F)(F)F 0.0115

---

protocol_conditions: in acetonitrile, 288.15 K
assay_metric: solubility (mole fraction)

What value of solubility (mole fraction) has been reported for the following molecule? N#CCNC(=O)c1cnccc1C(F)(F)F 0.0206

---

protocol_conditions: in n-butanol, 313.15 K
assay_metric: solubility (mole fraction)
// no unit, no text: just the number

What value of solubility (mole fraction) has been reported for the following compound? N#CCNC(=O)c1cnccc1C(F)(F)F 0.0111

---

protocol_conditions: in isobutanol, 293.15 K
assay_metric: solubility (mole fraction)
// no unit, no text: just the number

What value of solubility (mole fraction) has been reported for the following compound? N#CCNC(=O)c1cnccc1C(F)(F)F 0.00264

---

protocol_conditions: in ethanol, 283.15 K
assay_metric: solubility (mole fraction)
// no unit, no text: just the number

What value of solubility (mole fraction) has been reported for the following compound? N#CCNC(=O)c1cnccc1C(F)(F)F 0.00429

---

protocol_conditions: in ethanol, 298.15 K
assay_metric: solubility (mole fraction)
// no unit, no text: just the number

What value of solubility (mole fraction) has been reported for the following molecule? N#CCNC(=O)c1cnccc1C(F)(F)F 0.00856

---

protocol_conditions: in 1,4-dioxane, 298.15 K
assay_metric: solubility (mole fraction)
// no unit, no text: just the number

What value of solubility (mole fraction) has been reported for the following compound? N#CCNC(=O)c1cnccc1C(F)(F)F 0.0208

---

protocol_conditions: in isobutanol, 318.15 K
assay_metric: solubility (mole fraction)
// no unit, no text: just the number

What value of solubility (mole fraction) has been reported for the following molecule? N#CCNC(=O)c1cnccc1C(F)(F)F 0.00885

The values you see were collected from BigSolDB 2.1.
